ASSAYED_TARGET: full-length beta-Catenin (Uniprot ID P35222) (Homo sapiens)
Construct: 10 nM full-length beta-Catenin (Uniprot ID P35222)
Sequence (P35222 whole entry): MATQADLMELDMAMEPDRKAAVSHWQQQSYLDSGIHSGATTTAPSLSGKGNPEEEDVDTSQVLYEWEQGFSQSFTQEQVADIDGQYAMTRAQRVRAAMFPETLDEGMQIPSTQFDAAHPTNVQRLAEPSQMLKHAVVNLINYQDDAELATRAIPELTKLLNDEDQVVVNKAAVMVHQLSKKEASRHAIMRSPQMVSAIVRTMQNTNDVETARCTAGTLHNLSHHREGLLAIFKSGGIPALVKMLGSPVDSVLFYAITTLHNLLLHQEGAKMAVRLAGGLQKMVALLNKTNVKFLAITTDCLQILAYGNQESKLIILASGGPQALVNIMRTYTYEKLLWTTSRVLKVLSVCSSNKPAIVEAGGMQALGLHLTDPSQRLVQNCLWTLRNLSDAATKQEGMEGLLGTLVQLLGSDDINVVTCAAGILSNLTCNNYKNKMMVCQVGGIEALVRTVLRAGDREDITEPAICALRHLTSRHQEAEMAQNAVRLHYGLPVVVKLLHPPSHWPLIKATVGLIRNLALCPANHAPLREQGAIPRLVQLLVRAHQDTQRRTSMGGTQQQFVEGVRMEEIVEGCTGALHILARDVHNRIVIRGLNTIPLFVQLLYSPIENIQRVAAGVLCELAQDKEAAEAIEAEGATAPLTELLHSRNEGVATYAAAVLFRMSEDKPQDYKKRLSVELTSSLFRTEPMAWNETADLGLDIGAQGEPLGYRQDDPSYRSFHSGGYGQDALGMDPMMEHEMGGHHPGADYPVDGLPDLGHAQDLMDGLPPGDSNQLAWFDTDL
EXPERIMENTAL_DETAILS: Fluorescence polarization IC50 (beta-catenin / 5FAM-TCF4 10-53 competition)
Assay type: binding
ASSAY_CONTEXT: Table E2-1; read-out: beta-Catenin FP IC50
Property: pIC50; scope: individual compounds
In textbook form, pIC50 equals minus log to base ten of the concentration in mol/L.

Solved entries:
compound="CC(=O)N1CCC[C@]12CC=CCCCC1(CCCC=CCCCCCC[C@@](C)(C(=O)N[C@@H](Cc3ccccc3)C(=O)N[C@@H](Cc3c[nH]c4ccccc34)C(=O)N[C@@H](CCC(N)=O)C(N)=O)NC(=O)[C@H](C(C)C)NC(=O)[C@H](Cc3ccccc3)NC(=O)[C@H](C)NC(=O)[C@H](C)NC(=O)[C@H](Cc3cccnc3)NC(=O)[C@H](CC(=O)O)NC1=O)NC(=O)[C@H](C)NC(=O)[C@H](CC(=O)O)NC2=O (stereo partly drawn) [I-271]" assayed_target="full-length beta-Catenin (Uniprot ID P35222) (Homo sapiens)" val=5.30
compound="CC(=O)N1CCC[C@]12CC=CCCCC1(CCCC=CCCCCCC[C@@](C)(C(=O)N[C@@H](Cc3ccccc3)C(=O)N[C@@H](Cc3csc4ccccc34)C(=O)N[C@@H](CCC(N)=O)C(N)=O)NC(=O)[C@H](C(C)C)NC(=O)[C@H](Cc3ccccc3)NC(=O)[C@H](C)NC(=O)[C@H](C)NC(=O)[C@H](CC(=O)O)NC(=O)[C@H](CC(=O)O)NC1=O)NC(=O)[C@H](CCC(N)=O)NC(=O)[C@H](CC(=O)O)NC2=O (stereo partly drawn) [I-347]" assayed_target="full-length beta-Catenin (Uniprot ID P35222) (Homo sapiens)" val=6.92

Please examine the following record next.
Need pIC50 of CC(=O)N1CCC[C@]12CC=CCCCC1(CCCC=CCCCCCC[C@@](C)(C(=O)N[C@@H](Cc3ccccc3)C(=O)N[C@@H](Cc3csc4ccccc34)C(=O)N[C@@H](CCC(N)=O)C(N)=O)NC(=O)[C@H](CCC(N)=O)NC(=O)[C@H](Cc3ccccc3)NC(=O)[C@H](C)NC(=O)[C@H](C)NC(=O)[C@H](Cc3ccc4ccccc4c3)NC(=O)[C@H](CC(=O)O)NC1=O)NC(=O)[C@H](C)NC(=O)[C@H](CC(=O)O)NC2=O (stereo partly drawn) [I-295] , thanks.
5.30

----------
ASSAYED_TARGET: full-length B-Catenin (Uniprot ID P35222) (Homo sapiens)
Construct: 65 nM full-length B-Catenin (Uniprot ID P35222)
EXPERIMENTAL_DETAILS: Alphascreen binding assay (beta-catenin / biotin-TCF4 10-53)
MEASUREMENT_LABEL: pEC50
In textbook form, pEC50 equals minus log to base ten of the concentration in mol/L.

molecule="CC[C@H](C)[C@H](NC(=O)[C@H](CC(=O)O)NC(C)=O)C(=O)N[C@]1(C)CCN(C)C(=O)OCC=CCCCCC[C@@](C)(C(=O)N[C@@H](Cc2ccccc2)C(=O)N[C@@H](Cc2c[nH]c3ccccc23)C(=O)N[C@@H](Cc2c[nH]cn2)C(N)=O)NC(=O)[C@H](CCC(N)=O)NC(=O)[C@H](Cc2ccccc2)NC(=O)[C@H](C)NC(=O)[C@H](C)NC(=O)[C@H](CC(=O)O)NC(=O)[C@H](CC(=O)O)NC1=O [I-150]" assayed_target="full-length B-Catenin (Uniprot ID P35222) (Homo sapiens)" val=5.71

Please examine the following record next.
Need pEC50 of CC(=O)N1CCC[C@]12CC=CCCCC1(CCCC=CCCCCCC[C@@](C)(C(=O)N[C@@H](Cc3ccccc3)C(=O)N[C@@H](Cc3csc4ccccc34)C(=O)N[C@@H](CCC(N)=O)C(N)=O)NC(=O)[C@H](CO)NC(=O)[C@H](Cc3ccccc3)NC(=O)[C@H](C)NC(=O)[C@H](C)NC(=O)[C@H](Cc3ccc4ccccc4c3)NC(=O)[C@H](CC(=O)O)NC1=O)NC(=O)[C@H](C)NC(=O)[C@H](CC(=O)O)NC2=O (some centres unmarked) [I-298] , thanks.
5.41
